EXPERIMENT: NCI Yeast Anticancer Drug Screen. Data for the sgs1 mgt1 strain (AID 161);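 further: 0% = growth of cultures given vehicle only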
MEASUREMENT_CONTEXT: S. cerevisiae sgs1 mgt1 strain, at 50.0 µM, hits give high values
Procedure: Growth inhibition of yeast strains with defined genetic alterations is measured as a screen for potential anti-cancer activity. Selected strains with alterations in DNA damage repair or cell cycle control were exposed to compounds and growth inhibition was measured relative to vehicle treated controls. The strain used in this assay is sgs1 mgt1
Compounds without any hit were thinned out: in the full panel of roughly 79,000, 15% have a hit.
Kindly return met if reported growth inhibition is no lower than 20%; return not met if it is lower.

Illustrative cases are given below, each with its answer.
COMPOUND	CLASSIFICATION
CCOC(=O)/C(=C\c1cccc(OC)c1)C(C)=O	met
CC(C)COP(=O)(OCC(C)C)C(NS(=O)(=O)c1ccccc1)(C(F)(F)F)C(F)(F)F	not met
CC(C)c1ccc(N2C(=O)C=CC2=O)cc1	met

Quick check: does `COc1ccc(Cc2nncc3ccccc23)cc1OC` have growth inhibition greater than or equal to 20%?
met

Evaluate CCCCCCCCCCCCCCCCCC(=O)OC(C)CCC1CCCO1 (stereo not drawn) : growth inhibition at minimum 20%?
not met

Could you verify whether the entry `O=c1[nH]c2ccc([N+](=O)[O-])c(Cl)c2c2ccccc12` shows growth inhibition of no less than 20%?
not met

Please indicate if the recorded growth inhibition for `Cc1ccccc1NC(=O)Cc1csc(N=Nc2c(O)[nH]c3ccccc23)n1` meets or exceeds 20%.
not met

---

# growth inhibition values compiled below
EXPERIMENT: NCI Yeast Anticancer Drug Screen. Data for the rad50 strain (AID 155);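 further: 0% = growth of vehicle-only cultures of the same strain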
MEASUREMENT_CONTEXT: S. cerevisiae rad50 strain growth inhibition; at 5.0 µM (retest, dose inferred, filed as 0.5); hits give high values
This is part of a sample that, as a whole, favours compounds with a hit. Of some 79,000 tested, about 15% had one in any assay.
All answers are understood in %, so give the number only.

Use the examples below as a reference point.
MOLECULE	RESULT_UNITS	growth inhibition
CC(=O)N1OC2(C)c3ccccc3C1(C)c1ccccc12	%	99
COc1ccc(/C(=N/NC(N)=O)C(c2ccc(OC)cc2)C2C(=O)Oc3ccccc32)cc1 (stereo not given)	%	-7
CC(C)CCCC(=O)CCCCCCC(=O)CCN(O)C(=O)C(N)CO (stereo not given)	%	98

Next item in the queue.
Could you share which growth inhibition value was measured for `CCCCCCCCCCCCNCc1ccc(O)c(OC)c1` ?
95

---

EXPERIMENT: NCI Yeast Anticancer Drug Screen. Data for the mlh1 rad18 strain (AID 175)
MEASUREMENT_CONTEXT: S. cerevisiae mlh1 rad18 strain growth inhibition; at 5.0 µM (retest, dose inferred, filed as 0.5); hits give high values
About 79,000 compounds went through this panel and 15% of them were active in at least one assay; those are over-represented in the sample as a whole.
Reported growth inhibition by item:
State the answer as a number, implicitly in %.

Recorded growth inhibition, per entry:
MOLECULE	OBSERVABLE	RESULT_UNITS	NUMERIC_READOUT
COc1cc([C@H]2c3c(cc(OC)c(OC)c3OC)CC3COC(=O)[C@@H]32)cc2c1OCO2 (stereo partly specified)	growth inhibition	%	-2
C=CCN1CCC(OC(=O)C(O)(/C=C\CC)C2CCCC2)CC1 (stereo unspecified)	growth inhibition	%	7
COC(=O)C(Sc1ccc(Cl)cc1)C1SC(=S)N(C)C1=O (stereo unspecified)	growth inhibition	%	38
CCCCCCCCCCCCCCCC[n+]1ccc(/C=C/c2ccccc2)cc1	growth inhibition	%	99

Which value of growth inhibition has been reported for `Cc1cc(NC(=S)SCc2ccc(F)cc2)ccc1Br` in the records?
33

Which growth inhibition is reported for this molecule? CCCC(CCC)NCCOC(=O)C(CC)c1ccccc1 (stereo unspecified)
4

For the molecule shown here, `Cc1ccccc1N1C(=O)c2ccccc2C1=O` , give the reported growth inhibition.
0

Which value of growth inhibition has been reported for CC1/C(=N\O)CC(c2ccccc2)N(C)C1c1ccccc1 (stereo unspecified) in the records?
95

Value lookup for growth inhibition; key = `COc1cc(Nc2ccc(O)cc2)c2ncccc2c1`
33

What growth inhibition value was documented for this molecule, CCCN(CCC)CC(O)c1ccc2ccc3ccc(Cl)cc3c2c1 (stereo unspecified) ?
27

Quick one: growth inhibition for O=P(OCCCl)(OCCCl)C(Nc1cccc2ccccc12)c1ccccc1 (stereo unspecified) ?
4
